# measurementNotes: NCI Yeast Anticancer Drug Screen. Data for the mlh1 rad18 strain (AID 175)
# experimentalConditions: S. cerevisiae mlh1 rad18 strain growth inhibition; at 50.0 µM; active compounds read high
Compounds without any hit were thinned out: in the full panel of roughly 79,000, 15% have a hit.
molecules and their reported growth inhibition
reportedMetric: growth inhibition (%)

| molecule | val |
| --- | --- |
| N#Cc1ccc(/C=C/C(=O)c2ccccc2)cc1 | 9.05 |
| Cc1ccc(SCCN)cc1 | -10.2 |
| OCCCCCCO | 12.3 |
| Cc1nc2[nH]cc(-c3ccccc3)c2c(=N)n1-c1ccc(F)cc1 | 0.55 |
| COC(=O)CCC(=O)c1ccc2c(c1)CCC2 | 7.65 |
| CCN(CC)CC(O)c1cccc2cccnc12 (stereo not given) | 30.2 |
| O=C1/C(=C/c2ccccc2)SC(=S)N1C1c2ccccc2Oc2ccccc21 | 30.1 |
| CC(=O)/C(C)=C\c1ccc(C(C)C)cc1 | -1.55 |
| CCOC(=O)N1c2ccccc2S(=O)(=O)c2ccccc21 | -52.2 |
| C/C(=N/NC(N)=O)c1ccc(C)o1 | 0.35 |
| O=C(Nc1ccc(Cl)c([N+](=O)[O-])c1)Oc1ccc2ccccc2c1 | 10.7 |
| CCOC(=O)CN1CCC(C(=O)OCC)CC1 | 20.8 |
| CC12CCC3[C@@H](CC3(C)C)C(O)(CCC1=O)C2 (stereo not given in full) | -57.1 |
| COC(=O)c1ccccc1N(C)C(=O)c1cc(OC)c(OC)c(OC)c1 | -8.85 |
| O=c1cc(-c2cccs2)ss1 | 25 |
| O=C(c1ccc(F)cc1)c1cccc(C(=O)c2ccc(F)cc2)n1 | -36.1 |
| O=C(O)c1ccc(NC(=S)Nc2ccc(C(=O)O)cc2)cc1 | -22.9 |
| CCC(=O)OC1CCCCC1C1CCCCC1 (stereo not given) | -3.9 |
| COc1ccc(C(O)C(=O)c2nc3ccc([N+](=O)[O-])cc3[nH]c2=O)cc1 (stereo not given) | -5.2 |
| CN1CCOC1(C)CO (stereo not given) | -55 |
| O=C(O)/C=C/C(=O)Nc1ccccc1NC(=O)/C=C/C(=O)O | -1.9 |
| COc1ccc(C2C(C#N)=C(S)N(C3OC(COC(C)=O)C(OC(C)=O)C(OC(C)=O)C3OC(C)=O)C(c3ccccc3)=C2C(C)=O)cc1 (stereo not given) | 39 |
| CCC(CC)COC(=O)CC(CC(=O)OCC(CC)CC)C(=O)OCC(CC)CC | 24.6 |
| COc1ccc(C(=Cc2cc(OC(C)=O)c3ccccc3c2OC(C)=O)c2ccc(OC)cc2)cc1 | -0.5 |
| Cc1cccc(C)c1NC(=S)N(CCC#N)C1CC(C)CC(C)(C)C1 (stereo not given) | -20 |

----------
# measurementNotes: NCI Yeast Anticancer Drug Screen. Data for the cln2 rad14 strain (AID 165);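 further: 0% = growth equal to vehicle treated cultures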
# experimentalConditions: S. cerevisiae cln2 rad14 strain, at 50.0 µM, active compounds read high
This is part of a sample that, as a whole, favours compounds with a hit. Of some 79,000 tested, about 15% had one in any assay. The source made the active and inactive calls. Rule as the data show it: active = growth inhibition above about 70%; inactive = the rest.

| smilesStructure | growth inhibition |
| --- | --- |
| CSC1(SC)CCCCCCCCCCC1 | -15.9% (inactive) |
| COCCNC(C)=O | -17.1% (inactive) |
| CCOCC/C(=N\Nc1ccc([N+](=O)[O-])cc1[N+](=O)[O-])c1ccccc1 | 19.6% (inactive) |
| CC(=O)c1cc(C)c(C)cc1C | -12% (inactive) |
| NS(=O)(=O)c1ccc(NC(=O)Nc2cccc(Cl)c2)cc1 | -4.9% (inactive) |
| O=C1/C(=C/c2ccc3c(c2)OCO3)CC/C1=C\c1ccc2c(c1)OCO2 | -55.6% (inactive) |
| CC(=O)OCC(COC(C)=O)C(C)=O | 21.6% (inactive) |
